System: ATP;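 note: ATP exposure 15 min at 22 °C before imaging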
Experimental protocol: switch fluorescence ratio, 500 uM ATP over buffer (Cy3 cluster intensity, sum of 5 cycles each) (fold (ratio)); higher = stronger signal-on switching upon ATP binding; sequences stand for … in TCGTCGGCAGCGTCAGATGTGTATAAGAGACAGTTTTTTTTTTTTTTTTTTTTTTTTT…TC
Condition info: aptamer strand: ATP DNA aptamer (quencher-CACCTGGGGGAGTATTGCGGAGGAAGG + anchor), 100 nM annealed; ATP concentration: 500 uM
Assay readout: switch fluorescence ratio
// keep it numeric: no unit symbol after the value

Incoming: Supply reported switch fluorescence ratio belonging to this sequence: "AGAGGGGGTA"
Outgoing: 0.997

Incoming: Supply reported switch fluorescence ratio belonging to this sequence: "TGAGCCGGGA"
Outgoing: 1

Incoming: Supply reported switch fluorescence ratio belonging to this sequence: "GAGGGTTTTT"
Outgoing: 1

Incoming: Supply reported switch fluorescence ratio belonging to this sequence: "GCTACTTAGT"
Outgoing: 1.02

More entries:
Incoming: Supply reported switch fluorescence ratio belonging to this sequence: "AGCACGTTCT"
Outgoing: 0.993

###

The entries below are paired with their reported switch fluorescence ratio.
System: ATP;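 note: ATP exposure 15 min at 22 °C before imaging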
Experimental protocol: switch fluorescence ratio, 500 uM ATP over buffer (Cy3 cluster intensity, sum of 5 cycles each) (fold (ratio)); higher = stronger signal-on switching upon ATP binding; sequences stand for … in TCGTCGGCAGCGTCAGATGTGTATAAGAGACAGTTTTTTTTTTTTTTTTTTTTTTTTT…TC
Condition info: aptamer strand: ATP DNA aptamer (quencher-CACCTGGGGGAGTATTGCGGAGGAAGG + anchor), 100 nM annealed; ATP concentration: 500 uM
// keep it numeric: no unit symbol after the value

Worked cases, answers included:
Incoming: Supply reported switch fluorescence ratio belonging to this sequence: "TGGGTCTGTT"
Outgoing: 1.01

Incoming: Supply reported switch fluorescence ratio belonging to this sequence: "TGTTGGTATA"
Outgoing: 1.01

Incoming: Supply reported switch fluorescence ratio belonging to this sequence: "GTACTGTCTC"
Outgoing: 0.993

Incoming: Supply reported switch fluorescence ratio belonging to this sequence: "TCGGCTTAGC"
Outgoing: 0.981

Incoming: Supply reported switch fluorescence ratio belonging to this sequence: "TTATTTAATC"
Outgoing: 1.01

More entries:
Incoming: Supply reported switch fluorescence ratio belonging to this sequence: "TTTCGAGCGT"
Outgoing: 1.01

Incoming: Supply reported switch fluorescence ratio belonging to this sequence: "AAGGCGTGAG"
Outgoing: 1.02

Incoming: Supply reported switch fluorescence ratio belonging to this sequence: "TGGGGATGGA"
Outgoing: 0.998

Incoming: Supply reported switch fluorescence ratio belonging to this sequence: "TAGACATGTT"
Outgoing: 1

Incoming: Supply reported switch fluorescence ratio belonging to this sequence: "AAGGAAGTGG"
Outgoing: 0.99

###

Tested on: ATP;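 note: ATP exposure 15 min at 22 °C before imaging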
Experimental protocol: switch fluorescence ratio, 500 uM ATP over buffer (Cy3 cluster intensity, sum of 5 cycles each) (fold (ratio)); higher = stronger signal-on switching upon ATP binding; sequences stand for … in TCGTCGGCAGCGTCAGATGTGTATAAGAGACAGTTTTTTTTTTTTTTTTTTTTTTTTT…TC
Condition info: aptamer strand: ATP DNA aptamer (quencher-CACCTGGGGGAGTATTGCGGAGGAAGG + anchor), 100 nM annealed; ATP concentration: 500 uM
Assay readout: switch fluorescence ratio
// keep it numeric: no unit symbol after the value

Worked cases, answers included:
Incoming: Supply reported switch fluorescence ratio belonging to this sequence: "CGTGTGGGGA"
Outgoing: 1.02

Incoming: Supply reported switch fluorescence ratio belonging to this sequence: "AAGTTACTAG"
Outgoing: 1.07

More entries:
Incoming: Supply reported switch fluorescence ratio belonging to this sequence: "CTTGAATTTT"
Outgoing: 0.988
